Assay: 14C assay with IPTG-induced recombinant E. coli cells: 14CO2 captured from [14C]-carboxyl-labeled dicamba
Settings: induced recombinant E. coli cells, [14C]-carboxyl-labeled dicamba, 14CO2 capture

{"Molecule": "38 (protein, listed as Variovorax paradoxus) MAQGKIGLEEHFAIPQTLQDSAGFVPGVYWKELSSRLLDIHDGRLRQMDEHGMEMMILSLNAPAVQAVADPVKAYELAVRANDFLAEQVAKRPDRFQAFAALPMQDPEKATQELERCMSVLGFRGALVNGFSQVGTPDNVAYYDAPQYAPFWAAAERLDAPFYLHPRNPIASWAQIYEGHPWLLGPTWAFAQETAVHALRLMASGLFDRHPGLKIILGHLGEGLPYNMWRVDHRNAWVKAPKGYPAKRKLCEYFQENFYLTTSGNFRTQTLIDAMLEVGSDRILFSTDWPFENIDHASNWFNDTSISEADRKKIGRTNAMSLFKLA", "Dicamba Decarboxylase Activity": "Low"}
{"Molecule": "22 (protein, listed as Staphylococcus epidermidis) MAKSINFEEHYVVDDIQKETMKYMSSDPNGVPMQTMLKGLEQKSGFTNADDITKHDERIKFMDEHDVEMQVLSYGNGAPSNLEGERAIELCQQANDTLAKYVNEHPDRFVGFATLPINEPQAAVEEFKRCIKELGFKGALIMGHPKNGFLDQDQYDDLFATAEALNVPIYLHPSPVQSDVYQAYYKGNYSDVTAATFACFGYGWHVDVGIHAIHLVLSGVFDRHPNLNMIIGHWGEFVPFFLERMDDILFADHLEHPISYYFKNNFYITPSGMLTKPQFDLVKAEVGVDRILYSADYPYVEPDKLGTFLDELDLTEEEKEKISYKNGAKLLGLEK", "Dicamba Decarboxylase Activity": "High"}
{"Molecule": "3 (protein, listed as Lactobacillus plantarum) MAKLITVEEHFESAAVTAAMRQAVGNAVLPAVSPALRQYMRDNLPSPAIMQDTQHERLAFMAQYGIDMQVLSYGNSSPQNLSPEQAVPLSQLANDELAKAVVAHPDRYAGLAVLPVGDPQAAVAELNRAVTTLGLRGVLLKGNYQNKFFDEPFFLPIFEAAAALDVPVYFHPSFIPQAVTSHYFESNQWSDVVTGILSSAGYGWHMDVGIQVIRMIASGIFDKLPGLKLISGHWGELVPLFLERLDDELTTYTDLQYPFSTYYRHNVYVTPSGILSAPQLQFMLAEMGADHLMYSIDYPYKQPETSGSFLDIADLTDEQRAQIAFGTATTLFKL", "Dicamba Decarboxylase Activity": "Low"}
{"Molecule": "46 (protein, listed as Rhodococcus opacus) MARIITLEEHYLDPAIAAASAPLARELSPDFAAAYDPASGLSYTPSAQVLQDLGQRRIADMDTHGISMQVLSCLTTQQVPADVAPDLVRAANDTAAAAVRAHPDRFAAFAALPTTAPDAAATELARCIDDLGFVGTMINGRTDGEFLDAPRFDPILATAAARNVPIYLHPAVPPRATSDSNYAGLAPLVTARLQTSAWGWHQETAVHFLHLVLSGVLDRYPNLQFILGHWGEMIPFYLDRLDEALPQAVTNLDRTISDYVRENVYITPSGMFNQAQLQYCVETLGVDRILYSVDYPFIGNDGAVSFLDEANLPDEAKHQIAHQNTEKLLGL", "Dicamba Decarboxylase Activity": "High"}

Taken from patent US20160053277A1.
